Origin of the recorded values: ChEMBL document CHEMBL1201862

# Test system: NCI-H522
# methodDescription: NCI tumour cell line growth inhibition, 48 h
The source made the active and inactive calls. Cut-off read from the data, not from the text of the source: active = GI50 up to about 1.1 µM and inactive = higher.
readoutKind: GI50

Clc1ccc2c(c1)CC1C[N+]3=C(CCCCC3)C1=C2 (centres undefined): 38.8 µM (inactive)
CN(C)C/C=C(/c1ccc(Br)cc1)c1cccnc1: 56.4 µM (inactive)
CN(C)/C=C/c1ccncc1: > 100 µM (inactive)

Lab note: next compound to report on.
Prompt line: Report the value of GI50 obtained on NCI-H522 for COC(=O)[C@]1(C)CCC[C@]2(C)[C@H]3CC[C@]4(C(C)C)OO[C@@H](O4)[C@]34O[C@@H]4C[C@H]21 .
Response line: 1.43 µM (inactive)

----------
Reported values of GI50 for individual entries
# Test system: DU-145
# methodDescription: NCI tumour cell line growth inhibition, 48 h
The source made the active and inactive calls. No stated cut-off is given here; in the data, active = GI50 up to about 1.1 µM and inactive = higher.

In the examples that follow, each entry is paired with its recorded GI50.
CC1=C(C(N)=O)C(c2ccncc2)C(C#N)C(=O)N1 (centres undefined): > 100 µM (inactive)
O=C(O)c1cc(O)nc(SCc2ccccc2)n1: > 100 µM (inactive)
O=C1Cc2c(-c3ccc(Cl)cc3)cc(-c3ccccc3)nc2-c2ccccc2N1: 8.18 µM (inactive)
c1ccc2oc(-c3ccc(-c4nc5ccccc5o4)c4c3CC4)nc2c1: > 100 µM (inactive)
O=c1[nH]cnc2c1ncn2C1SC(CO)C(O)C1O (centres undefined): > 100 µM (inactive)
Clc1ccc(-c2cc(-c3cc(-c4ccc(Cl)cc4)[nH]n3)[nH]n2)cc1: > 100 µM (inactive)

Prompt line: Report the value of GI50 obtained on DU-145 for CCOC(=O)c1csc(NC(=O)CCCC#N)n1 .
Response line: > 100 µM (inactive)

Prompt line: Report the value of GI50 obtained on DU-145 for c1cncc(CNCc2cccnc2)c1 .
Response line: > 100 µM (inactive)

Prompt line: Report the value of GI50 obtained on DU-145 for O=C(Nc1ccc(Br)c2ccccc12)c1ccc2ccccc2c1O .
Response line: 3.89 µM (inactive)

Prompt line: Report the value of GI50 obtained on DU-145 for CCCCCCCC(CC(=O)NC(CO)C(=O)NC(CO)CC(C)C)OC(=O)CC(CCCCCCC)OC(=O)CC(CCCCCCC)OC1OC(C)C(O)C(OC2OC(C)C(O)C(O)C2OC(C)=O)C1O (centres undefined) .
Response line: 10.6 µM (inactive)

Prompt line: Report the value of GI50 obtained on DU-145 for O=C1CCC2(c3ccccc3)Nc3ccncc3N12 (centres undefined) .
Response line: > 10 µM (inactive)

Prompt line: Report the value of GI50 obtained on DU-145 for CN(C)CC1CCC/C(=C\c2ccc(OC(=O)/C=C/c3ccccc3)cc2)C1=O (centres undefined) .
Response line: 2.47 µM (inactive)

Prompt line: Report the value of GI50 obtained on DU-145 for CCOC(=O)c1c(NC(=O)c2ccccc2)sc2c1CCCC2 .
Response line: > 100 µM (inactive)

----------
# Test system: TK-10
# methodDescription: NCI tumour cell line growth inhibition, 48 h
Activity calls are given as the source filed them. Rule as the data show it: active = GI50 up to about 1.1 µM and inactive = higher.
One label from this list, please: true (1) = active, false (0) = inactive

Worked cases, answers included:
CC[C@H](C)[C@H]1NC(=O)[C@@H](NC(=O)[C@@H](CC(C)C)N(C)CC2CCCN2C(=O)C(C)=O)[C@@H](C)OC(=O)[C@H](Cc2ccc(OC)cc2)N(C)C(=O)C2CCCN2C(=O)[C@H](CC(C)C)NC(=O)[C@@H](C)C(=O)[C@H](C(C)C)OC(=O)C[C@@H]1O (stereo partly specified): true (1)
O=C(/C=C1\C[C@H]2C=Nc3ccccc3C(=O)N2C1)NCCCNC(=O)/C=C1\C[C@H]2C=Nc3ccccc3C(=O)N2C1: false (0)
COc1nc(N)nc2nc[nH]c12: false (0)

Prompt line: // return assay outcome for COc1cc2c(cc1OC)C(Cl)C(c1cc(OC)c(OC)c(OC)c1)=C2Cl (stereo unspecified)
Response line: false (0)

Prompt line: // return assay outcome for COc1ccc(CCc2cc(OC)cc(OC)c2)cc1
Response line: false (0)

Prompt line: // return assay outcome for CC1=NC(C(=O)O)Cc2c1[nH]c1ccccc21 (stereo unspecified)
Response line: false (0)

Prompt line: // return assay outcome for COC(=O)C12C34C=CC5(CCC6(C=CC1(CC3)O6)C52C(=O)OC)O4 (stereo unspecified)
Response line: false (0)

Prompt line: // return assay outcome for COc1cc(-c2cc(=O)c3c(OC)c(OC)c(OC)c(OC)c3o2)cc(OC)c1OC
Response line: false (0)

Prompt line: // return assay outcome for CC1=CC(C)(C)Nc2ccc(CSc3ccccc3)cc21
Response line: false (0)

Prompt line: // return assay outcome for O=C(Nc1ccc(Br)c2ccccc12)c1ccc2ccccc2c1O
Response line: false (0)

Prompt line: // return assay outcome for Cc1ccsc1C(=O)C(CC(=O)c1cccs1)c1ccsc1 (stereo unspecified)
Response line: false (0)

Prompt line: // return assay outcome for N=C(N)N/N=C/c1c(-c2ccc(Cl)c(Cl)c2Cl)nc2sccn12
Response line: false (0)

Prompt line: // return assay outcome for CC(C)(C)OC(=O)/C=C/[C@@H](CCC(=O)/C=C/[C@H](/C=C\CCCC(=O)O)NC1(c2ccccc2)c2ccccc2-c2ccccc21)O[Si](C)(C)C(C)(C)C
Response line: false (0)

Prompt line: // return assay outcome for NCCC(N)C(=O)O (stereo unspecified)
Response line: false (0)

Prompt line: // return assay outcome for Cc1ccc(NC(S)=Nc2c(C)n(C)n(-c3ccccc3)c2=O)cc1
Response line: false (0)

Prompt line: // return assay outcome for COc1cc(C=C(c2ccc(N(C)C)cc2)c2ccc(N(C)C)cc2)c2ccccc2c1OC
Response line: false (0)

Prompt line: // return assay outcome for CCOC1=C2N=C(Cc3ccc(F)cc3)NC2C(=O)c2ccccc21 (stereo unspecified)
Response line: false (0)

Prompt line: // return assay outcome for O=C1CN(c2ccccc2)C(=O)C1C(=O)Nc1ccc(Cl)c(Cl)c1 (stereo unspecified)
Response line: false (0)

Prompt line: // return assay outcome for O=C1CC(c2ccccc2)[S+]([O-])c2ccccc2N1 (stereo unspecified)
Response line: false (0)

Prompt line: // return assay outcome for COc1cccc(Nc2nc3c([nH]2)c(=O)n(C)c(=O)n3C)c1
Response line: false (0)

Prompt line: // return assay outcome for Cc1cc(C)c(S(=O)(=O)N2CCCN(S(=O)(=O)c3c(C)cc(C)cc3C)OCCCON(S(=O)(=O)c3c(C)cc(C)cc3C)CCCN(S(=O)(=O)c3c(C)cc(C)cc3C)OCCCO2)c(C)c1
Response line: false (0)

Prompt line: // return assay outcome for COc1ccc(-n2c(C)nc3ccc(NC4OC(CO)C(O)C(O)C4O)cc3c2=O)cc1 (stereo unspecified)
Response line: false (0)
